Tested on: Enterococcus sp.
protocol.details: In vitro antibacterial evaluation: minimum inhibitory concentration (MIC), broth dilution method
Type: cell-based
test.settings: strain GC 2242
recorded.endpoint: MIC Enterococcus faecalis (GC 2242) (µg/mL)
Answers are plain numbers, in µg/mL.

COc1ccc(Oc2cccc(C3OCC4OC(OC5C(CO)OC(Oc6ccc(CC7NC(=O)C(C(C)c8ccccc8)NC(=O)CNC(=O)C(CO)NC(=O)C(C(O)C8CNC(=N)N8C8OC(CO)C(O)C(O)C8O)NC(=O)C(C(O)C8CNC(=N)N8)NC7=O)cc6)C(O)C5O)C(O)C(O)C4O3)c2)cc1 (stereo not shown) :: 4

Each compound below has a recorded value; state its MIC Enterococcus faecalis (GC 2242).
1. COc1cc(C2OCC3OC(OC4C(CO)OC(Oc5ccc(CC6NC(=O)C(C(C)c7ccccc7)NC(=O)CNC(=O)C(CO)NC(=O)C(C(O)C7CNC(=N)N7C7OC(CO)C(O)C(O)C7O)NC(=O)C(C(O)C7CNC(=N)N7)NC6=O)cc5)C(O)C4O)C(O)C(O)C3O2)ccc1[N+](=O)[O-] (stereo not shown)
2. CC(c1ccccc1)C1NC(=O)CNC(=O)C(CO)NC(=O)C(C(O)C2CNC(=N)N2C2OC(CO)C(O)C(O)C2O)NC(=O)C(C(O)C2CNC(=N)N2)NC(=O)C(Cc2ccc(OC3OC(CO)C(OC4OC5COC(c6ccc(-c7ccsc7)cc6)OC5C(O)C4O)C(O)C3O)cc2)NC1=O (stereo not shown)
3. CCCC(CCC)C(=O)OCC1OC(Oc2ccc(CC3NC(=O)C(C(C)c4ccccc4)NC(=O)CNC(=O)C(CO)NC(=O)C(C(O)C4CNC(=N)N4C4OC(CO)C(O)C(O)C4O)NC(=O)C(C(O)C4CNC(=N)N4)NC3=O)cc2)C(O)C(O)C1OC1OC(CO)C(O)C(O)C1O (stereo not shown) [Example 99b]
4. COc1cc(OC)cc(C2OCC3OC(OC4C(CO)OC(Oc5ccc(CC6NC(=O)C(C(C)c7ccccc7)NC(=O)CNC(=O)C(CO)NC(=O)C(C(O)C7CNC(=N)N7C7OC(CO)C(O)C(O)C7O)NC(=O)C(C(O)C7CNC(=N)N7)NC6=O)cc5)C(O)C4O)C(O)C(O)C3O2)c1 (stereo not shown)

Output line:
1: 4; 2: 4; 3: 16; 4: 4

---

What MIC Enterococcus faecalis (GC 4553) was measured for each of the following?
Tested on: Enterococcus sp.
protocol.details: In vitro antibacterial evaluation: minimum inhibitory concentration (MIC), broth dilution method
Type: cell-based
test.settings: broth dilution, inoculum 5×10^5 CFU/mL, 18 hours at 35° C.
Numbers only, in µg/mL.

For orientation, consider the following solved cases.
COc1ccc2cc(C3OCC4OC(OC5C(CO)OC(Oc6ccc(CC7NC(=O)C(C(C)c8ccccc8)NC(=O)CNC(=O)C(CO)NC(=O)C(CC8CNC(=N)N8C8OC(CO)C(O)C(O)C8O)NC(=O)C(CC8CNC(=N)N8)NC7=O)cc6)C(O)C5O)C(O)C(O)C4O3)ccc2c1 (stereo not shown) [Example 190] :: 32
CC(c1ccccc1)C1NC(=O)CNC(=O)C(CO)NC(=O)C(C(O)C2CNC(=N)N2C2OC(CO)C(O)C(O)C2O)NC(=O)C(C(O)C2CNC(=N)N2)NC(=O)C(Cc2ccc(OC3OC(CO)C(OC4OC5COC(c6ccc(-c7ccsc7)cc6)OC5C(O)C4O)C(O)C3O)cc2)NC1=O (stereo not shown) [Example 164] :: 8

Dear colleague, could you send me MIC Enterococcus faecalis (GC 4553) for each of the items below? Thanks.
1. CC(c1ccccc1)C1NC(=O)CNC(=O)C(CO)NC(=O)C(C(O)C2CNC(=N)N2C2OC(CO)C(O)C(O)C2O)NC(=O)C(C(O)C2CNC(=N)N2)NC(=O)C(Cc2ccc(OC3OC(CO)C(OC4OC5COC(c6ccc(C(=O)c7ccc(I)cc7)cc6)OC5C(O)C4O)C(O)C3O)cc2)NC1=O (stereo not shown) [Example 186]
2. N=C1NCC(C(O)C2NC(=O)C(Cc3ccc(OC4OC(CO)C(OC5OC6COC7(OC6C(O)C5O)C5CC6CC(C5)CC7C6)C(O)C4O)cc3)NC(=O)C(Cc3ccccc3)NC(=O)CNC(=O)C(CO)NC(=O)C(C(O)C3CNC(=N)N3C3OC(CO)C(O)C(O)C3O)NC2=O)N1 (stereo not shown) [Example 220]
3. CC(c1ccccc1)C1NC(=O)CNC(=O)C(CO)NC(=O)C(CC2CNC(=N)N2C2OC(CO)C(O)C(O)C2O)NC(=O)C(CC2CNC(=N)N2)NC(=O)C(Cc2ccc(OC3OC(CO)C(OC4OC5COC6(OC5C(O)C4O)C4CC5CC(C4)CC6C5)C(O)C3O)cc2)NC1=O (stereo not shown) [Example 219]
4. Cc1ccc(Oc2cccc(C3OCC4OC(OC5C(CO)OC(Oc6ccc(CC7NC(=O)C(C(C)c8ccccc8)NC(=O)CNC(=O)C(CO)NC(=O)C(C(O)C8CNC(=N)N8C8OC(CO)C(O)C(O)C8O)NC(=O)C(C(O)C8CNC(=N)N8)NC7=O)cc6I)C(O)C5O)C(O)C(O)C4O3)c2)cc1 (stereo not shown) [Example 197]

Output line:
1: 2; 2: 1; 3: 8; 4: 64

Input line: Report MIC Enterococcus faecalis (GC 4553) for CSc1ccc(C2OCC3OC(OC4C(CO)OC(Oc5ccc(CC6NC(=O)C(C(C)c7ccccc7)NC(=O)CNC(=O)C(CO)NC(=O)C(C(O)C7CNC(=N)N7C7OC(CO)C(O)C(O)C7O)NC(=O)C(C(O)C7CNC(=N)N7)NC6=O)cc5)C(O)C4O)C(O)C(O)C3O2)cc1[N+](=O)[O-] (stereo not shown) [Example 168] tested on Enterococcus sp..
Output line: 2

Origin of values: patent US8247211B2
